Intestinal-type alkaline phosphatase (Bos taurus, UniProt P19111) IC50, compiled from various sources.
Sequence (P19111 whole entry): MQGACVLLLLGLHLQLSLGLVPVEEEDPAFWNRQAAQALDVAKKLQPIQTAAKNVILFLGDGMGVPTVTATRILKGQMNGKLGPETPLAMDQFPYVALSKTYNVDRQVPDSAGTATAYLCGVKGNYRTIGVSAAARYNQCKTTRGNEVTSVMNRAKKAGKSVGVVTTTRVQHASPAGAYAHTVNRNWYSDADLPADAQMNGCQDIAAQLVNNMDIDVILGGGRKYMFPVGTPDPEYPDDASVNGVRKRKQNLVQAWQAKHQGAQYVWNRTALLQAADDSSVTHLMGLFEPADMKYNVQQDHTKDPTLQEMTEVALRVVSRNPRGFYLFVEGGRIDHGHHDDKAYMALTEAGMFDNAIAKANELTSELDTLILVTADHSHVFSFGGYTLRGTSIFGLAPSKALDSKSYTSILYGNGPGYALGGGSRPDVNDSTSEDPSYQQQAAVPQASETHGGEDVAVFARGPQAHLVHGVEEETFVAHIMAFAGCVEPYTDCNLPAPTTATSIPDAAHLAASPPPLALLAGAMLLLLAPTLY
property_label: IC50 (nM)

# annotated cases, reported IC50 shown
- COc1ccc(/C=C/C(=O)/C(=N/Nc2ccc(S(N)(=O)=O)cc2)N2CCOCC2)cc1OC: 350
- CN(C)c1ccc2c3c(cccc13)S(=O)(=O)NC2c1ccccc1 (configuration not stated): 1120
- CN(C)c1ccc2c3c(cccc13)S(=O)(=O)NC2c1cc(Cl)cc(Cl)c1O (configuration not stated): 380
- NS(=O)(=O)c1ccc(N/N=C(/C(=O)/C=C/c2ccccc2F)N2CCOCC2)cc1: 440
- COc1cccc(/C=C/C(=O)/C(=N/Nc2ccc(S(N)(=O)=O)cc2)N2CCOCC2)c1: 990

(I) NS(=O)(=O)c1ccc(N/N=C(/C(=O)/C=C/c2cccc([N+](=O)[O-])c2)N2CCOCC2)cc1
(II) COc1cc(/C=N/NC(=O)c2ccncc2)ccc1O
Which entry has a larger number for IC50, I or II ? Give the chosen item's label as your response.
II
